test: Toxicity liver stage against HepG2, at 10uM; format: cell-based; set-up: test concentration 10 uM, cell line HepG2-A16-CD81EGFP; conditions: human, HepG2-A16-CD81EGFP cells; read-out: INHIBITION
Reported values of cytotoxicity at 10 µM for individual entries

>  <Compound>
COCc1ncn2c1CN(C(=O)C1CC=CC1)CC2

>  <Output unit>
%

>  <cytotoxicity at 10 µM>
-5.09

$$$$
>  <Compound>
C[C@H](NC(=O)Cc1csc(-c2cccc(Cl)c2)n1)C(=O)O

>  <Output unit>
%

>  <cytotoxicity at 10 µM>
1.25

$$$$
>  <Compound>
Cc1ccc(C2COCCN2C(=O)c2ccsc2)o1 (stereo not given)

>  <Output unit>
%

>  <cytotoxicity at 10 µM>
-2.55

$$$$
>  <Compound>
CN1CCN(Cc2ccc(Cl)cc2)CC1C(=O)O (stereo not given)

>  <Output unit>
%

>  <cytotoxicity at 10 µM>
-2.31

$$$$
>  <Compound>
CCc1nc(C)cn1C(=O)Nc1ccc(C)cc1

>  <Output unit>
%

>  <cytotoxicity at 10 µM>
-1.64

$$$$
>  <Compound>
CCc1noc(C)c1C(=O)N1C[C@H](NS(C)(=O)=O)[C@@H](C2CC2)C1

>  <Output unit>
%

>  <cytotoxicity at 10 µM>
1.23

$$$$
>  <Compound>
O=C(c1ccccc1F)N(CCCO)S(=O)(=O)c1cccs1

>  <Output unit>
%

>  <cytotoxicity at 10 µM>
4.95

$$$$
>  <Compound>
COc1ncccc1C(=O)N1C[C@@H]2COC[C@]2(CN(C)C)C1

>  <Output unit>
%

>  <cytotoxicity at 10 µM>
-143

$$$$
>  <Compound>
COCCN1CCC(CNC(=O)C2(c3cccc(C)c3)CC2)CC1

>  <Output unit>
%

>  <cytotoxicity at 10 µM>
-1.88

$$$$
>  <Compound>
CCn1nc(C)c(NC(=O)CN2CC[C@@H](F)C2)c1C

>  <Output unit>
%

>  <cytotoxicity at 10 µM>
-1.2

$$$$
>  <Compound>
OC(COc1ccc2c(c1)OCO2)CN1CC(n2cccn2)C1 (stereo not given)

>  <Output unit>
%

>  <cytotoxicity at 10 µM>
-6.17

$$$$
>  <Compound>
Clc1cc(NCc2nccs2)nc2[nH]ccc12

>  <Output unit>
%

>  <cytotoxicity at 10 µM>
6.58

$$$$
>  <Compound>
NC(=O)c1c(-c2ccc(Cl)cc2Cl)csc1NC(=O)CCCC(=O)O

>  <Output unit>
%

>  <cytotoxicity at 10 µM>
5.97

$$$$
>  <Compound>
CN1CCN(C)C2(CCN(Cc3ccc(C4CCCCO4)o3)CC2)C1 (stereo not given)

>  <Output unit>
%

>  <cytotoxicity at 10 µM>
0.0773

$$$$
>  <Compound>
FC(F)(F)c1ccc2nc([C@H]3CCN(C4CCCCC4)C3)[nH]c2c1

>  <Output unit>
%

>  <cytotoxicity at 10 µM>
-0.668

$$$$
>  <Compound>
Cc1nc2sccn2c1CN(CCCN(C)C)Cc1ccco1

>  <Output unit>
%

>  <cytotoxicity at 10 µM>
-0.215

$$$$
>  <Compound>
COc1ccc(C(C)N(C)Cc2nc3c(cnn3C)c(=O)[nH]2)cc1 (stereo not given)

>  <Output unit>
%

>  <cytotoxicity at 10 µM>
-7.42

$$$$
>  <Compound>
Cc1cc(C(F)(F)F)nc(CCNC(C)Cn2nc(C)cc2C)n1 (stereo not given)

>  <Output unit>
%

>  <cytotoxicity at 10 µM>
8.19

$$$$
>  <Compound>
Cc1cccc(CO[C@@H]2CC[C@H]3[C@H]2OCCN3Cc2ccoc2)n1

>  <Output unit>
%

>  <cytotoxicity at 10 µM>
-109

$$$$
>  <Compound>
CC(C)C(NC(=O)c1ccccc1F)C(=O)N1CCC2(CC1)OCCO2 (stereo not given)

>  <Output unit>
%

>  <cytotoxicity at 10 µM>
7.04

$$$$
>  <Compound>
CC(O)CN1CCN(Cc2coc(-c3ccccc3Cl)n2)CC1 (stereo not given)

>  <Output unit>
%

>  <cytotoxicity at 10 µM>
-4.73

$$$$
>  <Compound>
Cc1noc(C)c1NS(=O)(=O)c1cc(Cl)c(Cl)c(C(=O)O)c1

>  <Output unit>
%

>  <cytotoxicity at 10 µM>
4.86

$$$$
>  <Compound>
CN1[C@@H]2CC[C@H]1CN(C(=O)CCc1csc(N)n1)CC2

>  <Output unit>
%

>  <cytotoxicity at 10 µM>
-0.0143

$$$$
>  <Compound>
CC1(C)[C@H](Cc2cc(CN3CCCCC3)on2)C[C@@H]1NS(C)(=O)=O

>  <Output unit>
%

>  <cytotoxicity at 10 µM>
1.12

$$$$
>  <Compound>
COCc1nc(CNC2CCCC(C)(C)C2)no1 (stereo not given)

>  <Output unit>
%

>  <cytotoxicity at 10 µM>
2.55

$$$$
>  <Compound>
COc1cc(N2CCC3(CC2)CNC(=O)CO3)ncn1

>  <Output unit>
%

>  <cytotoxicity at 10 µM>
2.57

$$$$
>  <Compound>
COc1c(CNCC(O)c2ccc(C)cc2)c(C(C)C)nn1C (stereo not given)

>  <Output unit>
%

>  <cytotoxicity at 10 µM>
-10.6

$$$$
>  <Compound>
CC(O)CN1CCN(C(=O)CCOc2ccccc2F)CC1 (stereo not given)

>  <Output unit>
%

>  <cytotoxicity at 10 µM>
3.66

$$$$
>  <Compound>
CC(C)(C)C(=O)N1CCCN(c2ncnc3nc(N)ccc23)CC1

>  <Output unit>
%

>  <cytotoxicity at 10 µM>
3.39

$$$$
>  <Compound>
COc1cccc(-c2noc(CN3CCOCC3C)n2)c1 (stereo not given)

>  <Output unit>
%

>  <cytotoxicity at 10 µM>
-11.7

$$$$
>  <Compound>
COCCC(=O)NCC(O)c1c(F)cccc1F (stereo not given)

>  <Output unit>
%

>  <cytotoxicity at 10 µM>
-2.38

$$$$
>  <Compound>
CC(C)c1cc2c(s1)NC(c1ccccc1)NC2=O (stereo not given)

>  <Output unit>
%

>  <cytotoxicity at 10 µM>
8.82

$$$$
>  <Compound>
CCCn1cc2c(C(F)F)cc(SCC(=O)O)nc2n1

>  <Output unit>
%

>  <cytotoxicity at 10 µM>
-10.9

$$$$
>  <Compound>
CCN(Cc1cccc(Cl)c1)Cn1nc(C)c2c(C)onc2c1=O

>  <Output unit>
%

>  <cytotoxicity at 10 µM>
-13

$$$$
>  <Compound>
Cc1cnn(CC2CN(Cc3nc4cccnc4[nH]3)CCO2)c1 (stereo not given)

>  <Output unit>
%

>  <cytotoxicity at 10 µM>
-1.04

$$$$

The values you see were collected from ChEMBL document CHEMBL4513216.
